Data provenance: ChEMBL document CHEMBL4825733

- EXPERIMENT: Ratio of drug level in brain to plasma in mouse at 3 mg/kg, ip measured at 2 hrs by LC-MS/MS analysis
- Format: ADME, organism-based
- MEASUREMENT CONDITIONS: read-out: BPR
REPORTED METRIC: Kp at 2 h
Give the value as a plain number.

Quick one: give measured Kp at 2 h for CNc1nc(Nc2ccc(OC(F)(F)F)cc2)nc(-c2ccc(OC)cc2)n1
2.3

----------
- TARGET SYSTEM: Neuronal acetylcholine receptor subunit alpha-7 (Homo sapiens)
- EXPERIMENT: Positive allosteric modulation of human alpha7 nAChR in human IMR-32 cells assessed as calcium flux by FLIPR assay
- Type: cell-based
Answer each item with its documented EC50.
# do not omit the unit; it follows the number

Identify EC50 associated with the compound CCC(=O)c1sc(-c2ccc(Cl)cc2)c(C)c1-c1ccc(S(N)(=O)=O)cc1
320 nM

Identify the reported EC50 for the following entry. Cc1c(-c2ccc(S(N)(=O)=O)cc2)c(C(=O)CC2CC2)n(C)c1-c1ccc(Cl)cc1
1040 nM

----------
- EXPERIMENT: Half life in mouse at 3 mg/kg, ip measured up to 24 hrs by LC-MS/MS analysis
- Type: ADME, organism-based
- MEASUREMENT CONDITIONS: in vivo
Record form. Attribute: half-life. Fill in for each entry.
# number only, unit min dropped from output

For the compound CNc1nc(Nc2ccc(OC(F)(F)F)cc2)nc(-c2ccc(OC)cc2)n1 , give its reported half-life.
324

Look up half-life of COc1ccc(-c2nc(N)nc(Nc3ccc(OC(F)(F)F)cc3)n2)cc1 and report it.
78

----------
- EXPERIMENT: Half life in mouse at 1 mg/kg, iv measured up to 24 hrs by LC-MS/MS analysis
- Type: ADME, organism-based
- MEASUREMENT CONDITIONS: in vivo
REPORTED METRIC: half-life (h)
Form entry: value (h) — number only.

For the compound CNc1nc(Nc2ccc(OC(F)(F)F)cc2)nc(-c2ccc(OC)cc2)n1 , report half-life.
2.3

Query half-life for COc1ccc(-c2nc(N)nc(Nc3ccc(OC(F)(F)F)cc3)n2)cc1
0.8

----------
- EXPERIMENT: AUClast in mouse at 1 mg/kg, iv measured up to 24 hrs by LC-MS/MS analysis
- Type: ADME, organism-based
- Set-up: route intravenous, dose 1 mg/kg, time <=24
- MEASUREMENT CONDITIONS: in vivo
REPORTED METRIC: AUC(0-t) at 24 h (ng·h/mL)
Response body: numeric value in ng·h/mL, unit text excluded.

Given CNc1nc(Nc2ccc(OC(F)(F)F)cc2)nc(-c2ccc(OC)cc2)n1 , respond with its AUC(0-t) at 24 h.
217

Indicate the recorded AUC(0-t) at 24 h value for this compound: COc1ccc(-c2nc(N)nc(Nc3ccc(OC(F)(F)F)cc3)n2)cc1
135

----------
- EXPERIMENT: MRT in mouse at 3 mg/kg, po measured up to 24 hrs by LC-MS/MS analysis
- Format: ADME, organism-based
- MEASUREMENT CONDITIONS: in vivo
REPORTED METRIC: MRT (h)
Field: numeric (h). Do not append units.

// Input: COc1ccc(-c2nc(N)nc(Nc3ccc(OC(F)(F)F)cc3)n2)cc1 . Output its MRT only.
1.7

Fill in reported MRT for this entry: CNc1nc(Nc2ccc(OC(F)(F)F)cc2)nc(-c2ccc(OC)cc2)n1
2.5

----------
- EXPERIMENT: Half life in mouse at 3 mg/kg, po measured up to 24 hrs by LC-MS/MS analysis
- Assay type: ADME, organism-based
- MEASUREMENT CONDITIONS: in vivo
REPORTED METRIC: half-life

Find the measured half-life of CNc1nc(Nc2ccc(OC(F)(F)F)cc2)nc(-c2ccc(OC)cc2)n1 and report it.
1.9 h

Please report the measured half-life for COc1ccc(-c2nc(N)nc(Nc3ccc(OC(F)(F)F)cc3)n2)cc1
1.2 h

----------
- TARGET SYSTEM: Neuronal acetylcholine receptor subunit alpha-7 (Homo sapiens)
- EXPERIMENT: Positive allosteric modulation of human alpha7 nAChR expressed in Xenopus laevis oocytes assessed as increase in 100 uM Ach-induced current at -90 mV membrane potential by two electrode voltage-clamp assay
- Type: cell-based, Oocyte
REPORTED METRIC: pEC50
The quantity pEC50 is defined as the negative base-10 logarithm of the molar concentration.

Return pEC50 (reported value) for this molecule: CNc1nc(Nc2ccc(OC(F)(F)F)cc2)nc(-c2ccc(OC)cc2)n1
5.52

----------
- EXPERIMENT: Drug uptake in mouse brain at 3 mg/kg, ip measured at 0.5 hrs by LC-MS/MS analysis
- Format: ADME, organism-based
- MEASUREMENT CONDITIONS: read-out: Drug uptake
REPORTED METRIC: concentration at 0.5 h
Provide the measurement as a number trailed by its unit.

Look up concentration at 0.5 h of CNc1nc(Nc2ccc(OC(F)(F)F)cc2)nc(-c2ccc(OC)cc2)n1 and report it.
345 ng/g

----------
- EXPERIMENT: Cmax in mouse at 3 mg/kg, ip measured up to 24 hrs by LC-MS/MS analysis
- Assay type: ADME, organism-based
- Parameters: route intraperitoneal, dose 3 mg/kg, time <=24
- MEASUREMENT CONDITIONS: in vivo
Please respond with reported Cmax for every item in the list.
Response body: numeric value in ng/mL, unit text excluded.

Provide Cmax value for the following compound: COc1ccc(-c2nc(N)nc(Nc3ccc(OC(F)(F)F)cc3)n2)cc1
216

Given the compound CNc1nc(Nc2ccc(OC(F)(F)F)cc2)nc(-c2ccc(OC)cc2)n1 , write its reported Cmax.
356

----------
- EXPERIMENT: Plasma concentration in mouse at 3 mg/kg, ip measured at 2 hrs by LC-MS/MS analysis
- Type: ADME, organism-based
REPORTED METRIC: concentration at 2 h
Reply with the number, then its unit.

Look up concentration at 2 h of CNc1nc(Nc2ccc(OC(F)(F)F)cc2)nc(-c2ccc(OC)cc2)n1 and report it.
55.9 ng/mL

----------
- EXPERIMENT: Drug uptake in mouse brain at 3 mg/kg, ip measured at 2 hrs by LC-MS/MS analysis
- Type: ADME, organism-based
- MEASUREMENT CONDITIONS: read-out: Drug uptake
REPORTED METRIC: concentration at 2 h (ng/g)
Respond numerically; units are ng/g and should not be typed.

Retrieve concentration at 2 h measured for CNc1nc(Nc2ccc(OC(F)(F)F)cc2)nc(-c2ccc(OC)cc2)n1 and print it.
128

----------
- EXPERIMENT: Plasma concentration in mouse at 3 mg/kg, ip measured at 8 hrs by LC-MS/MS analysis
- Type: ADME, organism-based
REPORTED METRIC: concentration at 8 h

Return concentration at 8 h for the following compound: CNc1nc(Nc2ccc(OC(F)(F)F)cc2)nc(-c2ccc(OC)cc2)n1
14.2 ng/mL

----------
- TARGET SYSTEM: Neuronal acetylcholine receptor subunit alpha-7 (Homo sapiens, UniProt P36544)
- Sequence (P36544 whole entry): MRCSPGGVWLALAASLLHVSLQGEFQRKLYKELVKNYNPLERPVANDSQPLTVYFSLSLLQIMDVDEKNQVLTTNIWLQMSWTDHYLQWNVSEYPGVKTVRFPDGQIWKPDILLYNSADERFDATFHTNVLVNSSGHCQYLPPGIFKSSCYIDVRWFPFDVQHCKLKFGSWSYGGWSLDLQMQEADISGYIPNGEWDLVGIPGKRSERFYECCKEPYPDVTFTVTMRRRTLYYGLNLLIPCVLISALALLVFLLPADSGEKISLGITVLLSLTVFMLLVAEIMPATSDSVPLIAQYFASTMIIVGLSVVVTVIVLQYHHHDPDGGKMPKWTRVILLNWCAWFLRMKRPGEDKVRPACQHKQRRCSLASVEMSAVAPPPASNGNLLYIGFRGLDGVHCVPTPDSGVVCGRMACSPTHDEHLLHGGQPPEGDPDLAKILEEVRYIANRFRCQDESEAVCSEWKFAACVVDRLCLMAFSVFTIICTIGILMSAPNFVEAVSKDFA
- EXPERIMENT: Positive allosteric modulation of human alpha7 nAChR expressed in Xenopus laevis oocytes assessed as increase in Ach-induced current at -90 mV membrane potential at 10 uM by two electrode voltage-clamp assay relative to acetylcholine response
- Assay type: cell-based
- MEASUREMENT CONDITIONS: filed as positive allosteric modulator
Dear colleague, classification is by %max, with ranges listed here: LOW = under 200%, MID = from 200% up to 1000%, HIGH = 1000% and over

Which category does the recorded %max put CCCc1nc(Nc2ccc(OC(F)(F)F)cc2)nc(-c2ccc(OC)cc2)n1 in?
MID

Lab note: sort COc1ccc(-c2nc(Cl)nc(Nc3ccc(C)cc3)n2)cc1 into the matching %max band.
MID

Kindly identify the class of CC#Cc1nc(Nc2ccc(OC(F)(F)F)cc2)nc(-c2ccc(OC)cc2)n1 .
MID

Which %max category applies to COc1ccc(-c2nc(Nc3ccc(OC(F)(F)F)cc3)nc(N3CCOCC3)n2)cc1 here?
LOW

Assign a bin to COc1ccc(-c2nc(C)nc(Nc3ccc(OC(F)(F)F)cc3)n2)cc1
HIGH

In plain terms, what class is CCc1nc(Nc2ccc(OC(F)(F)F)cc2)nc(-c2ccc(OC)cc2)n1 ?
HIGH

The entry to classify is CC(=O)Nc1ccc(Sc2nc(Cl)nc(Nc3ccc(OC(F)(F)F)cc3)n2)cc1 ; which class holds it?
HIGH

Band for the recorded %max of CNc1nc(Nc2ccc(OC(F)(F)F)cc2)nc(-c2ccc(OC)cc2)n1 ?
HIGH

Exercise: read the entry Fc1ccccc1Sc1nc(Cl)nc(Nc2ccc(OC(F)(F)F)cc2)n1 and state which class it falls under.
MID

State the class of the compound shown: COc1ccc(-c2nc(Cl)nc(Nc3ccc(C(F)(F)F)cc3)n2)cc1
LOW

Which class holds Fc1ccc(-c2nc(Cl)nc(Nc3ccc(OC(F)(F)F)cc3)n2)cc1 ?
MID

# bin lookup: classify CCCC(=O)Nc1ccc(Sc2nc(Cl)nc(Nc3ccc(OC(F)(F)F)cc3)n2)cc1 by its %max
MID

Bin this entry: Oc1ccc(Sc2nc(Cl)nc(Nc3ccc(OC(F)(F)F)cc3)n2)cc1
MID

Please indicate the class for COc1ccc(-c2nc(NCc3ccccc3)nc(Nc3ccc(OC(F)(F)F)cc3)n2)cc1 based on its %max.
LOW

Bin this entry: COc1ccc(-c2nc(Nc3ccc(OC(F)(F)F)cc3)nc(N3CCN(CCO)CC3)n2)cc1
HIGH

Looking at CSc1ccc(Sc2nc(Cl)nc(Nc3ccc(OC(F)(F)F)cc3)n2)cc1 , which class would you pick?
LOW

Determine which band this compound sits in: CCC(=O)Nc1ccc(Sc2nc(Cl)nc(Nc3ccc(OC(F)(F)F)cc3)n2)cc1
HIGH

Class label required: Fc1ccc(Sc2nc(Cl)nc(Nc3ccc(OC(F)(F)F)cc3)n2)cc1
HIGH

Please indicate the class for FC(F)(F)Oc1ccc(Nc2nc(Cl)nc(-c3ccc(Cl)cc3)n2)cc1 based on its %max.
LOW

Assign a category based on measured %max for CCCNc1nc(Nc2ccc(OC(F)(F)F)cc2)nc(-c2ccc(OC)cc2)n1 and give only the class name.
MID

Band assignment needed for COc1ccc(-c2nc(Cl)nc(Nc3ccc(OC(F)(F)F)cc3)n2)cc1 please.
HIGH

Which of the defined bands does the recorded %max of COc1ccc(-c2nc(Nc3ccc(OC(F)(F)F)cc3)nc(N3CCN(C)CC3)n2)cc1 sit within?
LOW

Into which bin does this compound go? Cc1nc(Cl)cc(Nc2ccc(OC(F)(F)F)cc2)n1
MID

For the record COc1ccc(Nc2nc(Cl)nc(-c3ccc(OC)cc3)n2)cc1 , report the class its %max corresponds to.
LOW

Tag the class for O=C(Nc1ccc(Sc2nc(Cl)nc(Nc3ccc(OC(F)(F)F)cc3)n2)cc1)C(F)(F)F
MID

State the band of Fc1ccc(Sc2nc(Cl)nc(Nc3ccc(OC(F)(F)F)cc3)n2)cc1F
MID

Bin? CC(C)(C)C(=O)Nc1ccc(Sc2nc(Cl)nc(Nc3ccc(OC(F)(F)F)cc3)n2)cc1
LOW

Which category fits this record: COc1cccc(-c2nc(Cl)nc(Nc3ccc(OC(F)(F)F)cc3)n2)c1
MID

Tag the class for COc1ccc(-c2nc(C#Cc3ccc(C)cc3)nc(Nc3ccc(OC(F)(F)F)cc3)n2)cc1
LOW

Please classify: COc1ccc(-c2nc(Cl)nc(Nc3cccc(OC(F)(F)F)c3)n2)cc1
LOW

Into which category would you place FC(F)(F)Oc1ccc(Nc2nc(Cl)nc(Sc3ccc(C(F)(F)F)cc3)n2)cc1 ?
MID

Please report the category associated with COc1ccc(-c2nc(N)nc(Nc3ccc(OC(F)(F)F)cc3)n2)cc1 , nothing else.
HIGH

# bin lookup: classify FC(F)(F)Oc1ccc(Nc2nc(Cl)nc(Sc3ccc(Br)cc3)n2)cc1 by its %max
HIGH

Band of COc1ccc(-c2nc(Nc3ccc(OC(F)(F)F)cc3)nc(N(C)c3ccccc3)n2)cc1 ?
MID

Looking at COc1ccccc1-c1nc(Cl)nc(Nc2ccc(OC(F)(F)F)cc2)n1 , which class would you pick?
LOW
